src = PubChem BioAssay (NCI)

Tested on: OVCAR-5 ovarian
run description: NCI-60 one-dose screen, 48 h (100 = growth as untreated, 0 = no growth, -100 = all killed)
condition context: 10 µM unless noted
Compounds without any hit were thinned out: in the full panel of roughly 83,000, 20% have a hit.
observable: growth (%)

sample_smiles=O=S(=O)(Nc1cccc2ccccc12)c1ccc(-c2cnc(C3CC3)o2)cc1 recorded_measurement=42.6
sample_smiles=NC(N)=Nc1ccc(Nc2cccc(Oc3ccc(Cl)c(C(F)(F)F)c3)c2)cn1 recorded_measurement=58.1
sample_smiles=COc1cccc2cc(-c3cc4ccccc4[nH]3)/c(=N\NC(=O)c3ccc(Cl)cc3)oc12 recorded_measurement=49.2
sample_smiles=Cc1ccc(-n2c(/C=C3\C(=O)Nc4ccccc43)ccc2CO)cc1 recorded_measurement=104
sample_smiles=COc1cc(-c2nc(SC(C)C)n(C(C)C)c(=O)c2C#N)ccc1OCc1ccccc1 recorded_measurement=93.2

###

Tested on: KM12 colon
run description: NCI-60 one-dose screen, 48 h (100 = growth as untreated, 0 = no growth, -100 = all killed)
condition context: 10 µM unless noted
This is part of a sample that, as a whole, favours compounds with a hit. Of some 83,000 tested, about 20% had one in any assay.
observable: growth (%)

sample_smiles=Cn1cc(-c2nnc(N)nc2-c2c[nH]c3ccc(F)cc23)c2cc(F)ccc21 recorded_measurement=74.5
sample_smiles=Cc1nn(-c2ccccc2)c2ncnc(N/N=C/c3ccccc3O)c12 recorded_measurement=16.7
sample_smiles=NS(=O)(=O)c1ccc(-n2cc(-c3cccc(NC(=O)c4ccc(N5CCOCC5)c(C(F)(F)F)c4)c3)nn2)cc1 recorded_measurement=25.8
sample_smiles=CS(=O)(=O)c1ncc(-c2ccccc2)cn1 recorded_measurement=100
sample_smiles=CN(Cc1ccccc1)S(=O)(=O)/N=C1\NC(=O)NC1=C(Cl)Cl recorded_measurement=4.88
sample_smiles=COc1ccc(C(=O)CSc2nc3c(c(Nc4ccc(S(N)(=O)=O)cc4)n2)CCCC3)cc1 recorded_measurement=73.7

###

System: BT-549 breast
run description: NCI-60 one-dose screen, 48 h (100 = growth as untreated, 0 = no growth, -100 = all killed)
condition context: 10 µM unless noted
This is part of a sample that, as a whole, favours compounds with a hit. Of some 83,000 tested, about 20% had one in any assay.
observable: growth (%)

sample_smiles=C=C(C=O)[C@@H]1CC[C@]2(CO)CC[C@]3(C)[C@H](CC[C@@H]4[C@@]5(C)CCCNC(C)(C)[C@@H]5CC[C@]43C)[C@@H]12 target_desc="BT-549 breast" scale_unit=% recorded_measurement=74.3
sample_smiles=C#C[C@]1(O)CC[C@H]2[C@@H]3CC=C4c5sc(-c6ccc(C)cc6)nc5CC[C@]4(C)[C@H]3CC[C@@]21C target_desc="BT-549 breast" scale_unit=% recorded_measurement=47.8
sample_smiles=NC(N)=Nc1ccc(Oc2cccc(NC(N)=Nc3ccc(Br)c(C(F)(F)F)c3)c2)cc1 target_desc="BT-549 breast" scale_unit=% recorded_measurement=45.9
sample_smiles=NC(N)=Nc1ccc(Oc2cccc(NC(N)=Nc3ccc(Cl)c(C(F)(F)F)c3)c2)cn1 target_desc="BT-549 breast" scale_unit=% recorded_measurement=60.4
sample_smiles=COc1ccc(Cn2cc3c(c2-c2cc(OC)c(OC)c(OC)c2)CCc2c(CN4CCCC4)noc2-3)cc1 target_desc="BT-549 breast" scale_unit=% recorded_measurement=76
sample_smiles=CN(C)CCN(C)c1ccc2ncc(C#Cc3cncc(C(=O)Nc4ccc(CN5CCN(C)CC5)c(C(F)(F)F)c4)c3)n2n1 target_desc="BT-549 breast" scale_unit=% recorded_measurement=111
sample_smiles=O=C1/C(=C/C=C/c2ccco2)SC(=S)N1C1CCCCC1 target_desc="BT-549 breast" scale_unit=% recorded_measurement=111
sample_smiles=Cc1ccc(-c2cc3nc(C(Cl)Cl)nc(C)n3n2)cc1 target_desc="BT-549 breast" scale_unit=% recorded_measurement=115
sample_smiles=Nc1cc(F)ccc1NC(=O)c1ccc(NC(=O)C/C=C/c2cccnc2)cc1 target_desc="BT-549 breast" scale_unit=% recorded_measurement=26.1
